# TESTED_SYSTEM: Fuc(a1-2)Gal(b1-3)[Fuc(a1-4)]GlcNAc(b1-3)[Gal(b1-4)GlcNAc(b1-6)]Gal(b1-4)Glc
# ASSAY_NOTES: glycan array binding signal (z-score within array); higher = stronger binding
# SETTINGS: glycan notation: IUPAC condensed, linker removed
This excerpt belongs to a sample that is enriched for the strongest signals.

BINDER: Eosinophil cationic protein (ECP) (Homo sapiens), P12724 (protein) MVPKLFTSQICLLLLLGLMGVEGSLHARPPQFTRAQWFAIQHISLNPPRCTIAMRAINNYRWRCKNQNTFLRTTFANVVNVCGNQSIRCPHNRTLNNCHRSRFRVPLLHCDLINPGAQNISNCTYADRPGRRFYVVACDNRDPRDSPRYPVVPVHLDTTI
glycan array binding signal (z-score): -0.315
